Test system: Staphylococcus sp.
METHOD_NOTES: in vitro antibacterial evaluation, MIC by broth dilution
Format: cell-based
STUDY_CONDITIONS: strain ATCC 29213; broth dilution, 18 hours at 35° C.
EXPERIMENTAL_ENDPOINT: MIC Staphylococcus aureus (ATCC 29213)

Answered cases to consult:
MOLECULE	TARGET_UNDER_TEST	MIC Staphylococcus aureus (ATCC 29213)
CC(c1ccccc1)C1NC(=O)CNC(=O)C(CO)NC(=O)C(C(O)C2CN(Cc3ccc4ccccc4c3)C(=N)N2C2OC(CO)C(O)C(O)C2O)NC(=O)C(C(O)C2CNC(=N)N2)NC(=O)C(Cc2ccc(OC3OC(CO)C(OC4OC(CO)C(O)C(O)C4O)C(O)C3O)cc2)NC1=O (stereo not drawn)	Staphylococcus sp.	>128 µg/mL
CC(c1ccccc1)C1NC(=O)CNC(=O)C(CO)NC(=O)C(C(O)C2CN(Cc3ccccc3)C(=NCc3ccccc3)N2C2OC(CO)C(O)C(O)C2O)NC(=O)C(C(O)C2CN(Cc3ccccc3)C(=NCc3ccccc3)N2Cc2ccccc2)NC(=O)C(Cc2ccc(OC3OC(CO)C(OC4OC5COC6(OC5C(O)C4O)C4CC5CC(C4)CC6C5)C(O)C3O)cc2)NC1=O (stereo not drawn)	Staphylococcus sp.	4 µg/mL

Read the next record carefully.
# query: MIC Staphylococcus aureus (ATCC 29213) | item CC(c1ccccc1)C1NC(=O)CNC(=O)C(CO)NC(=O)C(C(O)C2CN(Cc3ccccc3)C(=NCc3ccccc3)N2C2OC(CO)C(O)C(O)C2O)NC(=O)C(C(O)C2CN(Cc3ccccc3)C(=NCc3ccccc3)N2Cc2ccccc2)NC(=O)C(Cc2ccc(OC3OC(CO)C(OC4OC(CO)C(O)C(O)C4O)C(O)C3O)cc2)NC1=O (stereo not drawn) | system: Staphylococcus sp.
>128 µg/mL

----------
System: Enterococcus sp.
METHOD_NOTES: in vitro antibacterial evaluation, MIC by broth dilution
Format: cell-based
STUDY_CONDITIONS: broth dilution, 18 hours at 35° C.
Give MIC Enterococcus faecalis (GC 2691) for every item shown.
Numbers only, in µg/mL.

Your task in this section: give MIC Enterococcus faecalis (GC 2691) for each listed record.
1. COc1ccc2cc(C3OCC4OC(OC5C(CO)OC(Oc6ccc(CC7NC(=O)C(C(C)c8ccccc8)NC(=O)CNC(=O)C(CO)NC(=O)C(CC8CNC(=N)N8C8OC(CO)C(O)C(O)C8O)NC(=O)C(CC8CNC(=N)N8)NC7=O)cc6)C(O)C5O)C(O)C(O)C4O3)ccc2c1 (stereo not shown)
2. CCCCCCN=C1NCC(C(O)C2NC(=O)C(C(O)C3CNC(=N)N3)NC(=O)C(Cc3ccc(OC4OC(CO)C(OC5OC6COC7(OC6C(O)C5O)C5CC6CC(C5)CC7C6)C(O)C4O)cc3)NC(=O)C(C(C)c3ccccc3)NC(=O)CNC(=O)C(CO)NC2=O)N1C1OC(CO)C(O)C(O)C1O (stereo not shown)

1. 32
2. 8

List MIC Enterococcus faecalis (GC 2691) for every entry below, keeping the order given.
1. COc1ccc2cc(COCC3OC(OC4C(CO)OC(Oc5ccc(CC6NC(=O)C(C(C)c7ccccc7)NC(=O)CNC(=O)C(CO)NC(=O)C(CC7CNC(=N)N7C7OC(CO)C(O)C(O)C7O)NC(=O)C(CC7CNC(=N)N7)NC6=O)cc5)C(O)C4O)C(O)C(O)C3O)ccc2c1 (stereo not shown)
2. CC(c1ccccc1)C1NC(=O)CNC(=O)C(CO)NC(=O)C(C(O)C2CN(CCCCCCCCCCCCO)C(=N)N2C2OC(CO)C(O)C(O)C2O)NC(=O)C(C(O)C2CNC(=N)N2)NC(=O)C(Cc2ccc(OC3OC(CO)C(OC4OC(CO)C(O)C(O)C4O)C(O)C3O)cc2)NC1=O (stereo not shown)
3. CC(c1ccccc1)C1NC(=O)CNC(=O)C(CO)NC(=O)C(C(O)C2CNC(=N)N2C2OC(CO)C(O)C(O)C2O)NC(=O)C(C(O)C2CNC(=N)N2)NC(=O)C(Cc2ccc(OC3OC(CO)C(OC4OC5COC6(CCCCCCCCCCCC6)OC5C(O)C4O)C(O)C3O)cc2)NC1=O (stereo not shown)
4. CC(c1ccccc1)C1NC(=O)CNC(=O)C(CO)NC(=O)C(C(O)C2CNC(=N)N2C2OC(CO)C(O)C(O)C2O)NC(=O)C(C(O)C2CNC(=N)N2)NC(=O)C(Cc2ccc(OC3OC(CO)C(OC4OC(COC(=O)NCc5ccccc5)C(O)C(O)C4O)C(O)C3O)cc2)NC1=O (stereo not shown) [Example 257b]

1. 32
2. 128
3. 8
4. 0.5
